tested on: MS2 coat protein; assay: apparent KD of MS2 coat protein; designed switch direction (-1 OFF switch, 1 ON switch): -1; higher = weaker reporter binding; conditions: Eterna round: R95; input ligand: microRNA oligo, concentration not stated
apparent KD of MS2 coat protein for assorted sequences

recordSequence: AGCGGCCGAGGAUAUACAAUCCUCCUGGCAGCCUGUCUGCCACAUGAGGAUCACCCAUGUAGAAGGCGGACCGC [Xelezabi] (puzzle: Exclusion 2)
apparent KD of MS2 coat protein, µM: 0.128

recordSequence: UAUUAUCAAGCAAGAUCCUACAUGAGGAUCACCCAUGUGCUCGUCUUAUAAGGUACUGUGACGAAAGUCACGGUACC [Sensor 3, v1 - 73] (puzzle: Sensor v3, turn-off variant 1)
apparent KD of MS2 coat protein, µM: 0.107

recordSequence: CAAUUCCGAGGAUAUACAUGAGGAUCACCCAUGUCGGGCCUCAGCGUUUAGCGCCUAAGUAGAAGGUGGGUUUC [JL Riri mod 4] (puzzle: Exclusion 3)
apparent KD of MS2 coat protein, µM: 0.0371
